assay.details: Intracolonic bioavailability of levodopa prodrugs in monkeys
Assay type: in vivo, male Cynomologous monkeys
condition.summary: male, monkey, whole blood, intravenous, 10 mg; read-out: mean AUCinf
readout: AUC(0-inf) (ng·h/mL)

N[C@@H](Cc1ccc(O)c(O)c1)C(=O)O [levodopa, L-3,4-dihydroxyphenylalanine] | 3690
